EXPERIMENTAL_PROTOCOL: PSAC antagonists in infected red cells, primary screen, cell-based, P. falciparum Indochina, OD700, 1 h (AID 1154)
SETTINGS: P. falciparum Indochina infected RBC osmotic lysis, called active from +8 up or from −8 down
Calls of active or inactive are those of the source.
Labels: active, inactive

1. CCCNC(=O)OC[C@H]1O[C@H](CCON=C[C@@H](OC)[C@H](C)C=CCC(=O)OC)C=C[C@@H]1Oc1ccc(OC)cc1
inactive
2. C=CCOC(=O)[C@H]1[C@@H]2C(=O)O[C@@H](c3ccccc3)[C@@H](c3ccccc3)N2[C@@H](c2ccc(OCCOC(=O)[C@H]3C[C@H]4C(=O)N[C@@H](Cc5ccccc5)C(=O)N4[C@H]3c3ccc(O)cc3)cc2)[C@]12C(=O)Nc1ccccc12
inactive
3. O=C1[C@H]2[C@H]3[C@H](O)[C@H](O)CC(=NO[C@@H]4O[C@H](CO)[C@@H](O)[C@H](O)[C@H]4O)[C@H]3CC[C@H]2C(=O)N1Cc1ccc2c(c1)OCO2
active
4. CCN1C(=O)[C@H]2[C@H]3[C@H](O)[C@H](O)CC(=NOC(C)CN4CCCCc5nc(C)c(C)cc54)[C@@H]3CC[C@H]2C1=O (stereo partly specified)
inactive
5. CCOC(=O)CCN1C(=O)[C@H]2[C@H]3[C@H](O)[C@H](O)CC(=O)[C@H]3CC[C@H]2C1=O
inactive
6. CCOC(=O)NN=C1C[C@@H](O)[C@@H](O)[C@@H]2[C@@H]3C(=O)N(C[C@@H]4CCCO4)C(=O)[C@@H]3CC[C@@H]12
inactive
